System: Hepatocyte
protocol.notes: Intrinsic metabolic clearance in human hepatocytes measured per 10^6 cells after 24 hrs
Type: ADME, cell-based
property.name: CLH

- structure: "CCCC(=O)c1cnn(-c2ccc(NC(=O)c3cn(CC(=O)N4CCN(C)CC4)c4ccc(Cl)cc34)c(C#N)c2)c1C"
  property.name: "CLH"
  result: "0.143 mL/h"
- structure: "CCCC(=O)c1cnn(-c2ccc(NC(=O)c3cn(CC(=O)N4CCN(C)CC4)c4ccc(Cl)cc34)nn2)c1C"
  property.name: "CLH"
  result: "0.085 mL/h"
- structure: "CCCC(=O)c1cnn([C@H]2CC[C@H](NC(=O)c3cn(CC(=O)N4CCN(C)CC4)c4ccc(Cl)cc34)CC2)c1C"
  property.name: "CLH"
  result: "0.171 mL/h"

Okay, now this compound:
Query: Note CLH for the compound shown: CCCC(=O)c1cnn(C2CCN(NC(=O)c3cn(CC(=O)N4CCN(C)CC4)c4ccc(Cl)cc34)CC2)c1C
Result: 0.05 mL/h
